B1: HDV Ribozyme (parent)
chain: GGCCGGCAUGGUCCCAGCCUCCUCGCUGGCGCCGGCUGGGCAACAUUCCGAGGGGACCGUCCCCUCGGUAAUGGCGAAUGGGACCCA

# Variants of: B1
# Assay name: self-cleavage, relative activity (ratio to wild type); higher = more cleavage; co-transcriptional
Listed variants paired with reported self-cleavage
Metric name: self-cleavage

{"Mutation key": "A45G U46G", "Reported result": 0.643}
{"Mutation key": "A16G C24G", "Reported result": 0.178}
{"Mutation key": "U65G G74A", "Reported result": 0.3}
{"Mutation key": "C58G C61G", "Reported result": 0.88}
{"Mutation key": "G5U G74A", "Reported result": 0.125}
{"Mutation key": "C49A G50C", "Reported result": 1.15}
{"Mutation key": "C3A U60G", "Reported result": 0.471}
{"Mutation key": "G29U C85U", "Reported result": 0.086}
{"Mutation key": "C26U U65C", "Reported result": 1.07}
{"Mutation key": "C7G U69G", "Reported result": 0.293}
{"Mutation key": "U23C G53A", "Reported result": 0.849}
{"Mutation key": "U72A C75A", "Reported result": 0.222}
{"Mutation key": "U12C G82U", "Reported result": 0.104}
{"Mutation key": "G11U U27A", "Reported result": 0.511}
{"Mutation key": "C58G G76C", "Reported result": 0.914}
{"Mutation key": "C4G A16C", "Reported result": 0.0755}
{"Mutation key": "C3G G80C", "Reported result": 0.0665}
{"Mutation key": "G10C C15A", "Reported result": 0.237}
{"Mutation key": "G74C A87U", "Reported result": 0.304}
{"Mutation key": "G10A G82C", "Reported result": 0.231}
{"Mutation key": "C24U A42U", "Reported result": 0.17}
{"Mutation key": "G40A A51C", "Reported result": 0.984}
